- Test system: Neutrophil
- method: Inhibition of FMLP/CB-induced superoxide anion generation in human neutrophils at 10 ug/ml by ferricytochrome c reduction method
- Format: functional
A collection of compounds and their measured inhibition at 10 µg/mL
Respond numerically; units are % and should not be typed.

Examples from the recorded data:
CC(=O)OC[C@@]1(C(=O)O)CCC[C@@]2(C)[C@@H]3CC[C@H]4C[C@@]3(CC[C@H]12)C[C@@]4(O)CO
32.1
C[C@]1(CO)[C@H]2CCC3=C[C@@](C)(C(O)CO)CC[C@H]3[C@]2(C)CC[C@H]1O (some centres not stated)
17.8
CC1(C)OCC([C@]2(C)C=C3CC[C@@H]4[C@](C)(CO)C[C@@H](O)C[C@@]4(C)[C@@H]3CC2)O1 (some centres not stated)
38.4
C=C(C)C(=O)O[C@H]1[C@H]2C(=C)C(=O)O[C@@H]2/C=C(\CO)CC/C=C(/C=O)[C@H]1O
9.01

What value of measured inhibition at 10 µg/mL is listed for CC1(C)C[C@H]2[C@H]1CC[C@@]1(C)C[C@]2(O)CC[C@@H]1O ? 10.2

Moving on to CC1(C)[C@H]2CCC3=C[C@@](C)(C(O)CO)CC[C@H]3[C@]2(C)CC[C@H]1O[C@@H]1O[C@H](CO)[C@@H](O)[C@H](O)[C@H]1O (some centres not stated) 5.86

Moving on to C[C@@]12C[C@H](O)C[C@@](C)(C(=O)O)[C@H]1CCC1=C[C@@](C)(C(O)CO)CC[C@H]12 (some centres not stated) 5.18

###

- Tested on: Neutrophil
- method: Inhibition of FMLP/CB-induced superoxide anion generation in human neutrophils at 10 ug/ml by ferricytochrome c reduction method
- Format: functional
A collection of molecules and their measured inhibition at 10 µg/mL
Could you write the number and then its unit?

Examples from the recorded data:
CC1(C)[C@H](O)CC[C@@]2(C)[C@@H]3CC[C@](C)(C(O)CO)C=C3CC[C@H]12 (some centres not stated)
35.8%
CC(=O)OC[C@@]1(C(=O)O)CCC[C@@]2(C)[C@@H]3CC[C@H]4C[C@@]3(CC[C@H]12)C[C@H]4COC(=O)C(C)C
35.2%
COC(=O)[C@]1(C)CCC[C@@]2(C)[C@@H]3CC[C@@H]4C[C@@]3(CC[C@@H]21)C[C@@H]4CO
90.7%
C=C(C)C(=O)O[C@H]1[C@H]2C(=C)C(=O)O[C@@H]2/C=C(\CO)CC/C=C(/C=O)[C@H]1OCC
72.4%
C=C1C(=O)O[C@H]2C[C@@H](C)[C@@H]3CC[C@H](O)[C@@]3(C)C[C@H]12 [PSEUDOGUAIANOLIDE]
17%

What value of measured inhibition at 10 µg/mL is listed for CC(C)C(=O)OC[C@@H]1C[C@@]23CC[C@@H]4[C@](CO)(C(=O)O)CCC[C@@]4(C)[C@@H]2CC[C@H]1C3 ? 67%

Moving on to C[C@@]12CCC[C@@](C)(C(=O)O)[C@H]1CC[C@@]13C[C@H](CC[C@H]12)[C@H](C(=O)O)C3 69.6%

###

- Test system: Neutrophil
- method: Inhibition of FMLP/CB-induced superoxide anion generation in human neutrophils at 10 ug/ml by ferricytochrome c reduction method
- Format: functional
Would you mind labelling by inhibition at 10 µg/mL? At or over 40% is 1 (yes), under is 0 (no).

These solved cases illustrate the format of a correct answer.
C[C@@]1(CO)C[C@@H](O)C[C@@]2(C)[C@@H]3CC[C@](C)(C(O)CO)C=C3CC[C@H]12 (stereo not given in full)
0 (no)
CC(=O)OC[C@@]1(C(=O)O)CCC[C@@]2(C)[C@@H]3CC[C@H]4C[C@@]3(CC[C@H]12)C[C@@]4(O)COC(=O)C(C)C
1 (yes)
CC1=CC(=O)CC(C)(C)[C@@]1(O)/C=C/C(C)O (stereo not given in full)
0 (no)

Reported inhibition at 10 µg/mL at or above 40%? C[C@@]12CCC[C@@](CO)(C(=O)O)[C@H]1CC[C@]13C[C@@H](CO)[C@@H](CC[C@H]12)C3 0 (no)

Moving on to C[C@@]12CCC[C@@](C)(C(=O)O)[C@H]1CC[C@]13C[C@H](CO)[C@@H](CC[C@H]12)C3 1 (yes)

Moving on to C=C1C(=O)O[C@@H]2C[C@]3(C)[C@@H](CCC(C)=O)[C@@H]3C[C@H]12 1 (yes)

Moving on to C=C1C(=O)O[C@@H]2C[C@]3(C)[C@@H](CCC(C)O)[C@@H]3C[C@H]12 (stereo not given in full) 0 (no)

Moving on to C[C@@]12CCC[C@@](C)(C(=O)O)[C@H]1CC[C@@]13C[C@H](CC[C@H]12)[C@@](O)(CO)C3 1 (yes)

Moving on to C[C@@]1(CO)CC(=O)C[C@@]2(C)[C@@H]3CC[C@](C)(C(O)CO)C=C3CC[C@H]12 (stereo not given in full) 0 (no)

Moving on to CC(=O)OCC(O)[C@]1(C)C=C2CC[C@@H]3C(C)(C)[C@H](O[C@@H]4O[C@H](CO)[C@@H](O)[C@H](O)[C@H]4O)CC[C@@]3(C)[C@@H]2CC1 (stereo not given in full) 0 (no)
